Target: Cyp 2D6 (Homo sapiens)
Sequence (P10635 whole entry): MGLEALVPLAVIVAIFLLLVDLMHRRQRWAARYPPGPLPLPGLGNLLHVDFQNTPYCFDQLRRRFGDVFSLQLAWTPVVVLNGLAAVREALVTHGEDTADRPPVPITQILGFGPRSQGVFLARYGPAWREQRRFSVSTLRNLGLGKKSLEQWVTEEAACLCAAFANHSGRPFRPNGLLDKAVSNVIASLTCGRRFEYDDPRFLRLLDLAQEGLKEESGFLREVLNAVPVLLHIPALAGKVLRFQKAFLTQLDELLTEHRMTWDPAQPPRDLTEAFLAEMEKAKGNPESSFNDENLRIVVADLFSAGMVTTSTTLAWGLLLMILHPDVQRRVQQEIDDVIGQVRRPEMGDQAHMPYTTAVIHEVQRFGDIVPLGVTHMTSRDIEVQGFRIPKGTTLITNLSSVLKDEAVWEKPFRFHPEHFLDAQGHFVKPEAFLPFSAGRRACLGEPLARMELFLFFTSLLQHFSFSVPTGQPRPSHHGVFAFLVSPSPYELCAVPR
Assay: Cyp inhibition, Cyp2D6
Format: in vitro ADME
Details: read-out: Percent Cyp inhibition, 2D6
quantity-kind: inhibition at 10 µM (%)

• COC(=O)NCc1ccc(C(=O)Nc2nc(-c3ccccc3)ccc2N)cc1 = 27
• Nc1ccc(-c2ccccc2)nc1NC(=O)c1ccc(CNC(=O)OCc2cccnc2)cc1 = 55
• Nc1ccc(-c2ccccc2)nc1NC(=O)c1ccc(CNC(=O)OCc2ccccc2)cc1 = 24
• Nc1ccc(-c2ccccc2)nc1NC(=O)c1ccc(CNC(=O)OCc2ccccn2)cc1 = 24

====

Target: human HDAC1 complex (Homo sapiens, UniProt Q13547)
Construct: Flag; made in house
Sequence (Q13547 whole entry, one chain of several): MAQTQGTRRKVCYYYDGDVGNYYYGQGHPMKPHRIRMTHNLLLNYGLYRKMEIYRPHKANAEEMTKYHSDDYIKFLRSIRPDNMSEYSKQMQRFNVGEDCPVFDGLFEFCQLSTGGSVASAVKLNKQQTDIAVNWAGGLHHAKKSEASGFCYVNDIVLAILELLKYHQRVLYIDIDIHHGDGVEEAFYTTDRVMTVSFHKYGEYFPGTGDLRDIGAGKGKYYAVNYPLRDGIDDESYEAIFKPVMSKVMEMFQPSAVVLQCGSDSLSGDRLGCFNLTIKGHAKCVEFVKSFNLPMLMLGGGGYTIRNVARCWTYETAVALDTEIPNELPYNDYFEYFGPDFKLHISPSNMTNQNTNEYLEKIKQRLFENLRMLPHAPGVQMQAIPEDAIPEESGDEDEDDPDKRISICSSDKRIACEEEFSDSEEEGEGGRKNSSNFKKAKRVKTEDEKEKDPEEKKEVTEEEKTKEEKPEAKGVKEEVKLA
Assay: HDAC1-Flag in vitro deacetylation assay
Format: biochemical
Conditions: read-out: in vitro HDAC1 IC50
This listing pairs compounds with measured IC50.
quantity-kind: IC50

* Nc1ccc(-c2ccccc2)nc1NC(=O)c1ccc(CNC(=O)OCc2ccccc2)cc1 | 32 nM
* COC(=O)NCc1ccc(C(=O)Nc2nc(-c3ccccc3)ccc2N)cc1 | 37 nM
* Nc1ccc(-c2ccccc2)nc1NC(=O)c1ccc(CNC(=O)OCc2ccccn2)cc1 | 35 nM
* CC(=O)Nc1ccc(C(=O)Nc2nc(-c3ccccc3)ccc2N)cc1 | 86 nM
* Nc1ccc(-c2ccccc2)nc1NC(=O)c1ccc(CNC(=O)OCc2cccnc2)cc1 | 84 nM
* Nc1ccc(-c2cccs2)nc1NC(=O)c1ccc(CNC(=O)OCc2cccnc2)cc1 | 56 nM
